study_target: Human Fc (human)
run_description: ELISA; negative control
# optical density per entry
Please respond with the number in OD and leave the unit unwritten.

[
  {
    "binder": "375_C11 (antibody, V domains shown) VH: EVQLLESGGGLVQPGGSLRLSCAASGFTFSSYSMNWVRQAPGKGLEWVSSINYNGGYTSYADSVKGRFTISRDNSKNTLYLQMNSLRAEDTAVYYCARGATWHDTHLDYWGQGTLVTVSS VL: DIQMTQSPSSLSASVGDRVTITCRASQSILSYVNWYQQKPGKAPKLLIYAATSRHSGVPSRFSGSGSGTDFTLTISSLQPEDFATYYCQQSYDTPLTFGGGTKVEIK",
    "readout_number": 0.199
  },
  {
    "binder": "366_H06 (antibody, V domains shown) VH: EVQLLESGGGLVQPGGSLRLSCAASGFTFSSYGMNWVRQAPGKGLEWVSSINYNGGYTGYADSVKGRFTISRDNSKNTLYLQMNSLRAEDTAVYYCARSANWHDTALDYWGQGTLVTVSS VL: DIQMTQSPSSLSASVGDRVTITCRASQSILSYLNWYQQKPGKAPKLLIYATTSRASGVPSRFSGSGSGTDFTLTISSLQPEDFATYYCQQSYDTPLTFGGGTKVEIK",
    "readout_number": 0.285
  },
  {
    "binder": "376_G10 (antibody, V domains shown) VH: EVQLLESGGGLVQPGGSLRLSCAASGFTFDSYGMNWVRQAPGKGLEWVAGINYNGGYTSYADSVKGRFTISRDNSKNTLYLQMNSLRAEDTAVYYCARGANWHDTALDYWGQGTLVTVSS VL: DIQMTQSPSSLSASVGDRVTITCRASQSILSYVNWYQQKPGKAPKLLIYAATSRASGVPSRFSGSGSGTDFTLTISSLQPEDFATYYCQQSYESPLTFGGGTKVEIK",
    "readout_number": 0.321
  },
  {
    "binder": "376_G06 (antibody, V domains shown) VH: EVQLLESGGGLVQPGGSLRLSCAASGFTFSSYGMNWVRQAPGKGLEWVAGINYNGGYTGYADSVKGRFTISRDNSKNTLYLQMNSLRAEDTAVYYCARGANWHDTHLDYWGQGTLVTVSS VL: DIQMTQSPSSLSASVGDRVTITCRASQSIVSYVNWYQQKPGKAPKLVIYAATSRASGVPSRFSGSGSGTDFTLTISSLQPEDFATYYCQQSYNSPLTFGGGTKVEIK",
    "readout_number": 0.267
  },
  {
    "binder": "370_C07 (antibody, V domains shown) VH: EVQLLESGGGLVQPGGSLRLSCAASGFTFSSYSMNWVRQAPGKGLEWVANINYNGGYKSYADSVKGRFTISRDNSKNTLYLQMNSLRAEDTAVYYCARGATWHDTHLDYWGQGTLVTVSS VL: DIQMTQSPSSLSASVGDRVTITCRASQSILSYLNWYQQKPGKAPKLLIYAATSRHSGVPSRFSGSGSGTDFTLTISSLQPEDFATYYCQQSYESPLTFGGGTKVEIK",
    "readout_number": 0.316
  },
  {
    "binder": "375_H08 (antibody, V domains shown) VH: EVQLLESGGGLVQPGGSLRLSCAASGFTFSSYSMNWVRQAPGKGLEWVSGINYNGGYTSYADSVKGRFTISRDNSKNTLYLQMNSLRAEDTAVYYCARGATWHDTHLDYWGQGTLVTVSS VL: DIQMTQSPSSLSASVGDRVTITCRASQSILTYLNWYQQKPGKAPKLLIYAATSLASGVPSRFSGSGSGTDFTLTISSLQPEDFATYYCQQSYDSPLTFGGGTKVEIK",
    "readout_number": 0.204
  },
  {
    "binder": "370_G08 (antibody, V domains shown) VH: EVQLLESGGGLVQPGGSLRLSCAASGFTFSDYSMNWVRQAPGKGLEWVAGINYNGGYTGYADSVKGRFTISRDNSKNTLYLQMNSLRAEDTAVYYCARGATWHDTHLDYWGQGTLVTVSS VL: DIQMTQSPSSLSASVGDRVTITCRASQSILTYLNWYQQKPGKAPKLVIYAATSRASGVPSRFSGSGSGTDFTLTISSLQPEDFATYYCQQSYESPLTFGGGTKVEIK",
    "readout_number": 0.364
  },
  {
    "binder": "369_E08 (antibody, V domains shown) VH: EVQLLESGGGLVQPGGSLRLSCAASGFTFSSYSMNWVRQAPGKGLEWVASINYNSGYTGYADSVKGRFTISRDNSKNTLYLQMNSLRAEDTAVYYCARGATWHDTHLDYWGQGTLVTVSS VL: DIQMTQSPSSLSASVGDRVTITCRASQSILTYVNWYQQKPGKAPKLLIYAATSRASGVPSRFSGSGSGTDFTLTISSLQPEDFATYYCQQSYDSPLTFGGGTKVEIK",
    "readout_number": 0.272
  },
  {
    "binder": "368_H11 (antibody, V domains shown) VH: EVQLLESGGGLVQPGGSLRLSCAASGFTFDSYGMHWVRQAPGKGLEWVASINYNGGYTSYADSVKGRFTISRDNSKNTLYLQMNSLRAEDTAVYYCARGATWHDTHLDYWGQGTLVTVSS VL: DIQMTQSPSSLSASVGDRVTITCRASQSILSYLNWYQQKPGKAPKLLIYAATSRASGVPSRFSGSGSGTDFTLTISSLQPEDFATYYCQQSDDTPLTFGGGTKVEIK",
    "readout_number": 0.355
  }
]

Q: Query (binder): 366_B08 (antibody, V domains shown) VH: EVQLLESGGGLVQPGGSLRLSCAASGFTFDSYGMNWVRQAPGKGLEWVSNINYNGGYKGYADSVKGRFTISRDNSKNTLYLQMNSLRAEDTAVYYCARSANWHDTHLDYWGQGTLVTVSS VL: DIQMTQSPSSLSASVGDRVTITCRASQSIVSYLNWYQQKPGKAPKLLIYAATSRHSGVPSRFSGSGSGTDFTLTISSLQPEDFATYYCQQSYDNPLTFGGGTKVEIK ; field requested: optical density
A: 0.403
